Assign yeast fitness to each entry below.
B1: tRNA (parent)
chain: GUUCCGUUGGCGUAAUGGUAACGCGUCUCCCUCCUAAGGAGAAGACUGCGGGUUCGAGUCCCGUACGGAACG

variants of: B1; experiment: yeast fitness relative to wild type (ratio to wild type); higher = fitter; tRNA-Arg(CCU), competitive growth, 37 C, YPD
This sample holds only a part of the variants without activity.

Look over these answered cases.
G10A G18A C46A A65U ... ≤ 0.5
C24U C29A C33U ... ≤ 0.5
G12A U13A A65C ... ≤ 0.5
U2G G12A C34A A37G ... ≤ 0.5

Kindly give each listed record's yeast fitness.
1. C33U A45G C49A U53A
2. G10A A20U C31G C62U
3. U19A C29G U54C
4. C5G A36U C46G C62A A69C
5. C4A G41A A42C G50C A70G
6. C5U C30G C55G

1. ≤ 0.5
2. ≤ 0.5
3. ≤ 0.5
4. ≤ 0.5
5. ≤ 0.5
6. ≤ 0.5

Kindly give each listed record's yeast fitness.
1. C5G G9A C61U
2. U3A U8C A36U U53G

1. ≤ 0.5
2. ≤ 0.5

Kindly give each listed record's yeast fitness.
1. G23C A36C
2. C24U G44A C60U C62A

1. ≤ 0.5
2. ≤ 0.5
